assayed_target: CDK5/p35 (Homo sapiens)
Sequence (Q00535 whole entry, species assumed): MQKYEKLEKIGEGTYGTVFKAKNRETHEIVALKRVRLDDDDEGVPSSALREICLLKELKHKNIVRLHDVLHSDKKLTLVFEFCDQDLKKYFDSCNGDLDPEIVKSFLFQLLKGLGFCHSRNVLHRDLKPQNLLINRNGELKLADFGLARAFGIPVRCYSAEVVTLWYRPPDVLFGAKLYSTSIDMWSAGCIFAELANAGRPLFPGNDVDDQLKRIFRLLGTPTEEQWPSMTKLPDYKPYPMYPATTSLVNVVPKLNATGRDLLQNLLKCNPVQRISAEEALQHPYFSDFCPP
Sequence (Q15078 whole entry partner, species assumed): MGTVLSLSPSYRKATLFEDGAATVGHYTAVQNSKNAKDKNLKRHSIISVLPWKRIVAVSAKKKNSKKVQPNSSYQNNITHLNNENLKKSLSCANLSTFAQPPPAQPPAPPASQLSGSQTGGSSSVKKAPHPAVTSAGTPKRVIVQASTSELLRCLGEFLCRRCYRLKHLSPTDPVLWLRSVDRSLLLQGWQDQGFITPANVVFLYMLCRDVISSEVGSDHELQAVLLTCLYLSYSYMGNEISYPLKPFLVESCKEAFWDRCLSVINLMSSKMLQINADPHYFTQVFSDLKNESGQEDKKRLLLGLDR
assay_explanation: Kinase counter-screen, Ki
cond: apparent Ki
reported_endpoint: pKi
pKi (log units): -log10 of the concentration in mol/L.

IN: GET /values?readout=pKi&item= `CC(C)Nc1cc(-c2c[nH]c(C(=O)N[C@H](CO)c3cccc(Cl)c3)c2)c(Cl)cn1`
OUT: 7.05

----------
System: HT29
assay_explanation: Reverse Phase Protein Analysis (RPPA)
Assay type: cell-based
cond: % change from DMSO (matched cell line)
A collection of molecules and their measured Avg (Caspase 7 Cl D198)
Number only, in %; omit the unit.

Here is how some molecules turned out for Avg (Caspase 7 Cl D198).
Cc1cnc(Nc2ccc(F)cc2Cl)nc1-c1c[nH]c(C(=O)N[C@H](CO)c2cccc(Cl)c2)c1 [Vx-11e] = 8.28
CC(C)Nc1cc(-c2c[nH]c(C(=O)N[C@H](CO)c3cccc(Cl)c3)c2)c(Cl)cn1 [BVD-523] = −6.93
O=C(Nc1ccc2[nH]nc(-c3ccncc3)c2c1)[C@@H]1CCN(CC(=O)N2CCN(c3ccc(-c4ncccn4)cc3)CC2)C1 [SCH772984] = 7.02

API: the following record is the query input.
IN: GET /values?readout=Avg (Caspase 7 Cl D198)&item= Cn1nccc1Nc1nccc(-c2ccn([C@H](CO)c3ccc(Cl)c(F)c3)c(=O)c2)n1 [GDC-0994]
OUT: −0.88

----------
A collection of molecules and their measured Avg (Raptor S792)
Test system: Colo205
assay_explanation: Reverse Phase Protein Analysis (RPPA)
Type: cell-based, human
cond: % change from DMSO (matched cell line)
Number only, in %; omit the unit.

Here is how some molecules turned out for Avg (Raptor S792).
Cc1cnc(Nc2ccc(F)cc2Cl)nc1-c1c[nH]c(C(=O)N[C@H](CO)c2cccc(Cl)c2)c1 [Vx-11e] = 0.2
Cn1nccc1Nc1nccc(-c2ccn([C@H](CO)c3ccc(Cl)c(F)c3)c(=O)c2)n1 = −9.04
CC(C)Nc1cc(-c2c[nH]c(C(=O)N[C@H](CO)c3cccc(Cl)c3)c2)c(Cl)cn1 = 0.41

API: the following record is the query input.
IN: GET /values?readout=Avg (Raptor S792)&item= `O=C(Nc1ccc2[nH]nc(-c3ccncc3)c2c1)[C@@H]1CCN(CC(=O)N2CCN(c3ccc(-c4ncccn4)cc3)CC2)C1`
OUT: −4.17

----------
Test system: A375
assay_explanation: Reverse Phase Protein Analysis (RPPA)
Type: cell-based, human
cond: % change from DMSO (matched cell line)
Method: Control wells were treated with DMSO at 0.1% (v/v) for 6 hours prior to cell lysate generation. Samples were then analyzed using reverse-phase protein microarray technology (Theranostics Health). Cell lines with common alterations in BRAF and RAS were assayed: BRAF^V600E mutant lines A375, Colo205, and HT29; KRAS^G12C-mutant cell line MIAPACa-2; KRAS^G13D-mutant cell line HCT116; and AN3Ca with atypical HRAS^F82L mutation. […]
reported_endpoint: Avg (Chk1) (%)
Number only, in %; omit the unit.

Here is how some molecules turned out for Avg (Chk1).
Cc1cnc(Nc2ccc(F)cc2Cl)nc1-c1c[nH]c(C(=O)N[C@H](CO)c2cccc(Cl)c2)c1 [Vx-11e] = −0.86
O=C(Nc1ccc2[nH]nc(-c3ccncc3)c2c1)[C@@H]1CCN(CC(=O)N2CCN(c3ccc(-c4ncccn4)cc3)CC2)C1 [SCH772984] = 2.83
Cn1nccc1Nc1nccc(-c2ccn([C@H](CO)c3ccc(Cl)c(F)c3)c(=O)c2)n1 [GDC-0994] = −7.72

API: the following record is the query input.
IN: Give the reported Avg (Chk1) for CC(C)Nc1cc(-c2c[nH]c(C(=O)N[C@H](CO)c3cccc(Cl)c3)c2)c(Cl)cn1 [BVD-523] (system: A375).
OUT: 16.94
